The origin of these recorded values is ChEMBL document CHEMBL1132513.

Quick reference: half-life of the listed items.
PROTOCOL SUMMARY: Half life was determined
Format: ADME
STUDY CONDITIONS: rat
Provide only the numeric value, understood in h.

CO[C@H]1C[C@@H]2CC[C@@H](C)[C@@](O)(O2)C(=O)C(=O)N2CCCC[C@H]2C(=O)O[C@H]([C@H](C)C[C@@H]2CC[C@@H](O)[C@H](OC)C2)CC(=O)[C@H](C)/C=C(\C)[C@@H](O)[C@@H](OC)C(=O)[C@H](C)C[C@H](C)/C=C/C=C/C=C/1C : 13
CO[C@H]1C[C@@H]2CC[C@@H](C)[C@@](O)(O2)C(=O)C(=O)N2CCCC[C@H]2C(=O)O[C@H]([C@H](C)C[C@H]2CC[C@H](O)[C@@H](OC)C2)C[C@@H](OC(C)=O)[C@H](C)/C=C(\C)[C@@H](O)[C@@H](OC)C(=O)[C@H](C)C[C@H](C)/C=C/C=C/C=C/1C : 34

Proceed to the following item.
Query block: Item CO[C@H]1C[C@@H]2CC[C@@H](C)[C@@](O)(O2)C(=O)C(=O)N2CCCC[C@H]2C(=O)O[C@H](C[C@H](O)[C@H](C)C[C@@H]2CC[C@@H](O)[C@H](OC)C2)[C@H](C)/C=C(\C)[C@@H](O)[C@@H](OC)C(=O)[C@H](C)C[C@H](C)/C=C/C=C/C=C/1C has what recorded half-life?
Result block: 21.6

---

PROTOCOL SUMMARY: Half life was determined
Format: ADME
STUDY CONDITIONS: rat
ENDPOINT LABEL: half-life (h)
Provide only the numeric value, understood in h.

Query block: Item CO[C@H]1C[C@@H]2CC[C@@H](C)[C@@](O)(O2)C(=O)C(=O)N2CCCCC2(C)C(=O)O[C@H]([C@H](C)C[C@H]2CC[C@H](O)[C@@H](OC)C2)CC(O)[C@H](C)/C=C(\C)[C@@H](O)[C@@H](OC)C(=O)[C@H](C)C[C@H](C)/C=C/C=C/C=C/1C (stereo partly drawn) has what recorded half-life?
Result block: 14.6

Query block: Item CO[C@H]1C[C@@H]2CC[C@@H](C)[C@@](O)(O2)C(=O)C(=O)N2CCCC[C@H]2C(=O)O[C@H]([C@H](C)C[C@H]2CC[C@H](O)[C@@H](OC)C2)CC(O)[C@H](C)/C=C(\C)[C@@H](O)[C@@H](OC)C(=O)[C@H](C)C[C@H](C)/C=C/C=C/C=C/1C (stereo partly drawn) has what recorded half-life?
Result block: 17.5

Query block: Item CO[C@H]1C[C@@H]2CC[C@@H](C)[C@@](O)(O2)C(=O)C(=O)N2CCCCC2(C)C(=O)O[C@H]([C@H](C)C[C@H]2CC[C@H](O)[C@@H](OC)C2)CC(=O)[C@H](C)/C=C(\C)[C@@H](O)[C@@H](OC)C(=O)[C@H](C)C[C@H](C)/C=C/C=C/C=C/1C (stereo partly drawn) has what recorded half-life?
Result block: 38.4

---

Quick reference: log10 of IC50 of the listed items.
Organism: Mus musculus
PROTOCOL SUMMARY: In vitro ability to inhibit lymphoproliferation (LAF) in vitro using cells from the thymus of normal BALB/c mice
Assay type: functional
In our notation, the value equals log10 of IC50 in nM.

// worked examples, log10 of IC50 included
CO[C@H]1C[C@@H]2CC[C@@H](C)[C@@](O)(O2)C(=O)C(=O)N2CCCC[C@H]2C(=O)O[C@H](C[C@H](O)[C@H](C)C[C@@H]2CC[C@@H](O)[C@H](OC)C2)[C@H](C)/C=C(\C)[C@@H](O)[C@@H](OC)C(=O)[C@H](C)C[C@H](C)/C=C/C=C/C=C/1C : 1.20
CO[C@H]1C[C@@H]2CC[C@@H](C)[C@@](O)(O2)C(=O)C(=O)N2CCCCC2(C)C(=O)O[C@H]([C@H](C)C[C@H]2CC[C@H](O)[C@@H](OC)C2)CC(=O)[C@H](C)/C=C(\C)[C@@H](O)[C@@H](OC)C(=O)[C@H](C)C[C@H](C)/C=C/C=C/C=C/1C (some centres not stated) : 1.36
CO[C@H]1C[C@@H]2CC[C@@H](C)[C@@](O)(O2)C(=O)C(=O)N2CCCCC2(C)C(=O)O[C@H]([C@H](C)C[C@H]2CC[C@H](O)[C@@H](OC)C2)CC(O)[C@H](C)/C=C(\C)[C@@H](O)[C@@H](OC)C(=O)[C@H](C)C[C@H](C)/C=C/C=C/C=C/1C (some centres not stated) : 1.00

Query block: Item CO[C@H]1C[C@@H]2CC[C@@H](C)[C@@](O)(O2)C(=O)C(=O)N2CCCC[C@H]2C(=O)O[C@H]([C@H](C)C[C@@H]2CC[C@@H](O)[C@H](OC)C2)CC(=O)[C@H](C)/C=C(\C)[C@@H](O)[C@@H](OC)C(=O)[C@H](C)C[C@H](C)/C=C/C=C/C=C/1C [SIROLIMUS] has what recorded log10 of IC50?
Result block: 0.48

Query block: Item CO[C@H]1C[C@@H]2CC[C@@H](C)[C@@](O)(O2)C(=O)C(=O)N2CCCC[C@H]2C(=O)O[C@H]([C@H](C)C[C@H]2CC[C@H](O)[C@@H](OC)C2)CC(O)[C@H](C)/C=C(\C)[C@@H](O)[C@@H](OC)C(=O)[C@H](C)C[C@H](C)/C=C/C=C/C=C/1C (some centres not stated) has what recorded log10 of IC50?
Result block: 0.57

Query block: Item CO[C@H]1C[C@@H]2CC[C@@H](C)[C@@](O)(O2)C(=O)C(=O)N2CCCC[C@H]2C(=O)O[C@H]([C@H](C)C[C@H]2CC[C@H](O)[C@@H](OC)C2)C[C@@H](OC(C)=O)[C@H](C)/C=C(\C)[C@@H](O)[C@@H](OC)C(=O)[C@H](C)C[C@H](C)/C=C/C=C/C=C/1C has what recorded log10 of IC50?
Result block: 2.00

Query block: Item CCC12CCCCN1C(=O)C(=O)[C@]1(O)O[C@@H](CC[C@H]1C)C[C@H](OC)/C(C)=C/C=C/C=C/[C@@H](C)C[C@@H](C)C(=O)[C@H](OC)[C@H](O)/C(C)=C/[C@@H](C)C(=O)C[C@@H]([C@H](C)C[C@H]1CC[C@H](O)[C@H](OC)C1)OC2=O (some centres not stated) has what recorded log10 of IC50?
Result block: 2.15
